test: total protein half-life in vivo (active degradation + dilution); higher = more stable protein; details: wild type E. coli NCM3722; growth: C-lim chemostat; doubling time 12 h
parameter_measured: total protein half-life in vivo (h)
Provide the reading as a plain figure in h.

{"sequence_record": "MAISSRNTLLAALAFIAFQAQAVNVTVAYQTSAEPAKVAQADNTFAKESGATVDWRKFDSGASIVRALASGDVQIGNLGSSPLAVAASQQVPIEVFLLASKLGNSEALVVKKTISKPEDLIGKRIAVPFISTTHYSLLAALKHWGIKPGQVEIVNLQPPAIIAAWQRGDIDGAYVWAPAVNALEKDGKVLTDSEQVGQWGAPTLDVWVVRKDFAEKHPEVVKAFAKSAIDAQQPYIANPDVWLKQPENISKLARLSGVPEGDVPGLVKGNTYLTPQQQTAELTGPVNKAIIDTAQFLKEQGKVPAVANDYSQYVTSRFVQ", "total protein half-life in vivo, h": 13.2}
{"sequence_record": "MEKLRVGIVFGGKSAEHEVSLQSAKNIVDAIDKSRFDVVLLGIDKQGQWHVSDASNYLLNADDPAHIALRPSATSLAQVPGKHEHQLIDAQNGQPLPTVDVIFPIVHGTLGEDGSLQGMLRVANLPFVGSDVLASAACMDKDVTKRLLRDAGLNIAPFITLTRANRHNISFAEVESKLGLPLFVKPANQGSSVGVSKVTSEEQYAIAVDLAFEFDHKVIVEQGIKGREIECAVLGNDNPQASTCGEIVLTSDFYAYDTKYIDEDGAKVVVPAAIAPEINDKIRAIAVQAYQTLGCAGMARVDVFLTPENEVVINEINTLPGFTNISMYPKLWQASGLGYTDLITRLIELALERHAADNALKTTM [P0A6J8]", "total protein half-life in vivo, h": 10.5}
{"sequence_record": "MTPEHLPTEQYEAQLAEKVVRLQSMMAPFSDLVPEVFRSPVSHYRMRAEFRIWHDGDDLYHIIFDQQTKSRIRVDSFPAASELINQLMTAMIAGVRNNPVLRHKLFQIDYLTTLSNQAVVSLLYHKKLDDEWRQEAEALRDALRAQNLNVHLIGRATKTKIELDQDYIDERLPVAGKEMIYRQVENSFTQPNAAMNIQMLEWALDVTKGSKGDLLELYCGNGNFSLALARNFDRVLATEIAKPSVAAAQYNIAANHIDNVQIIRMAAEEFTQAMNGVREFNRLQGIDLKSYQCETIFVDPPRSGLDSETEKMVQAYPRILYISCNPETLCKNLETLSQTHKVERLALFDQFPYTHHMECGVLLTAK", "total protein half-life in vivo, h": 12.6}
{"sequence_record": "MSNTDASGEKRVTGTSERREQIIQRLRQQGSVQVNDLSALYGVSTVTIRNDLAFLEKQGIAVRAYGGALICDSTTPSVEPSVEDKSALNTAMKRSVAKAAVELIQPGHRVILDSGTTTFEIARLMRKHTDVIAMTNGMNVANALLEAEGVELLMTGGHLRRQSQSFYGDQAEQSLQNYHFDMLFLGVDAIDLERGVSTHNEDEARLNRRMCEVAERIIVVTDSSKFNRSSLHKIIDTQRIDMIIVDEGIPADSLEGLRKAGVEVILVGE [P0ACK2]", "total protein half-life in vivo, h": 9.94}
{"sequence_record": "MKNFEVLQPLQNSLSGLPLWVSERILQQINQLTHYEPVIGIMGKTGAGKSSLCNALFAGEVSPVSDVAACTRDPLRFRLQIGEHFMTIVDLPGVGESGVRDTEYAALYREQLPRLDLILWLIKADDRALATDEHFYRQVIGEAYRHKMLFVISQSDKAEPTSGGNILSTEQKQNISRKICLLHELFQPVHPVCAVSVRLQWGLRVMAERMIKCLPREASSPVVALLQHPFRTTVAREQARDDFGETVGAILDTVSTFPLIPAPVRTIIQAVRSSVVSVARAVWDFFF", "total protein half-life in vivo, h": 10.6}

Record METRREERIGQLLQELKRSDKLHLKDAAALLGVSEMTIRRDLNNHSAPVVLLGGYIVLEPRSASHYLLSDQKSRLVEEKRRAAKLAATLVEPDQTLFFDCGTTTPWIIEAIDNEIPFTAVCYSLNTFLALKEKPHCRAFLCGGEFHASNAIFKPIDFQQTLNNFCPDIAFYSAAGVHVSKGATCFNLEELPVKHWAMSMAQKHVLVVDHSKFGKVRPARMGDLKRFDIVVSDCCPEDEYVKYAQTQRIKLMY [P0ACK5] . Reported total protein half-life in vivo: 9.99

Record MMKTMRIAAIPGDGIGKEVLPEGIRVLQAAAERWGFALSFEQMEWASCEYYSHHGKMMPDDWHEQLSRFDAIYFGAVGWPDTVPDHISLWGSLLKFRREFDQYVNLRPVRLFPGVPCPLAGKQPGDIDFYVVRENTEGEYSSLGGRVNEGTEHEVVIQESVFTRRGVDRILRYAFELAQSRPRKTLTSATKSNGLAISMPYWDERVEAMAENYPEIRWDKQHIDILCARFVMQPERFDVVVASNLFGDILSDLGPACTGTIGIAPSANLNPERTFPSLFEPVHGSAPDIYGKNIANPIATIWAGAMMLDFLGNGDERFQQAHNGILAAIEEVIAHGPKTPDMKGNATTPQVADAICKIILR , field total protein half-life in vivo: 7.5

Recorded result, MTLLASLRDWLKAQQLDAVLLSSRQNKQPHLGISTGSGYVVISRESAHILVDSRYYVEVEARAQGYQLHLLDATNTLTTIVNQIIADEQLQTLGFEGQQVSWETAHRWQSELNAKLVSATPDVLRQIKTPEEVEKIRLACGIADRGAEHIRRFIQAGMSEREIAAELEWFMRQQGAEKASFDTIVASGWRGALPHGKASDKIVAAGEFVTLDFGALYQGYCSDMTRTLLVNGEGVSAESHLLFNVYQIVLQAQLAAISAIRPGVRCQQVDDAARRVITEAGYGDYFGHNTGHAIGIEVHEDPRFSPRDTTTLQPGMLLTVEPGIYLPGQGGVRIEDVVLVTPQGAEVLYAMPKTVLLTGEA , total protein half-life in vivo: 3.72

Per the record, MIRQRRRALTPEQQQEMGQQAATRMMTYPPVVMAHTVAVFLSFDGELDTQPLIEQLWRAGKRVYLPVLHPFSAGNLLFLNYHPQSELVMNRLKIHEPKLDVRDVLPLSRLDVLITPLVAFDEYGQRLGMGGGFYDRTLQNWQHYKTQPVGYAHDCQLVEKLPVEEWDIPLPAVVTPSKVWEW [P0AC28] has total protein half-life in vivo of 7.66

So for MTTKKADYIWFNGEMVRWEDAKVHVMSHALHYGTSVFEGIRCYDSHKGPVVFRHREHMQRLHDSAKIYRFPVSQSIDELMEACRDVIRKNNLTSAYIRPLIFVGDVGMGVNPPAGYSTDVIIAAFPWGAYLGAEALEQGIDAMVSSWNRAAPNTIPTAAKAGGNYLSSLLVGSEARRHGYQEGIALDVNGYISEGAGENLFEVKDGVLFTPPFTSSALPGITRDAIIKLAKELGIEVREQVLSRESLYLADEVFMSGTAAEITPVRSVDGIQVGEGRCGPVTKRIQQAFFGLFTGETEDKWGWLDQVNQ [P0AB80] , the logged total protein half-life in vivo turned out to be 10.9
